# Measured Target: T1, Human CXCR2 (human, UniProt P25025 1-360)
# T1 sequence: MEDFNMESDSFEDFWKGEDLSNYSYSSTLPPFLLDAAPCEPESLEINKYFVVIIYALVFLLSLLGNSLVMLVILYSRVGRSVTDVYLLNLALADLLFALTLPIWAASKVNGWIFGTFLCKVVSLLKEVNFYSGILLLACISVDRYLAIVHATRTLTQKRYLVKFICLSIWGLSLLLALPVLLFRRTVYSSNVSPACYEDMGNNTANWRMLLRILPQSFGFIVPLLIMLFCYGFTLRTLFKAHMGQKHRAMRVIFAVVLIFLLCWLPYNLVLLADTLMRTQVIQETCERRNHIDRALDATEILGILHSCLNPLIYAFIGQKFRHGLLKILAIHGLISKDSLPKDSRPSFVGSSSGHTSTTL
# Assay Name: cell-based or functional assay
# [35S]GTPγS % inhibition of max, ENA-78 per entry

# Binder, [35S]GTPγS % inhibition of max, ENA-78 [%]
rows = [
    ("CXCR20032 (bispecific antibody, not shown: small tags and cut ends) EVQLVESGGELVQPGGSLRLSCAASGSILTINAMGWYRQAPGKQRELVVRRTRGGSTTYQDSVKGRFTISADIAKKTMYLQMNSLKPEDTAVYYCMLDDRGGVYWGQGTQVTVSSGGGGSGGGGSGGGGSGGGGSGGGGSGGGGSGGGGSEVQLVESGGGLVQAGGSLRLSCAASGRTFSDYAMGWFRQAPGKEREFVAAITWNGGRVFYTASVKGRFTISRDNAKNTMYLQMNSLKPEDTAVYYCAADKDRRTDYLGHPVAYWGQGTQVTVSS", 100),
    ("CXCR20021 (bispecific antibody, not shown: small tags and cut ends) EVQLVESGGGLVQAGESLRLSCAASGSTFDFKVMGWYRQPPGKQREGVAAIRLSGNMHYAESVKGRFTISKANAKNTVYLQMNSLRPEDTAVYYCKVNIRGQDYWGQGTQVTVSSGGGGSGGGGSGGGGSGGGGSGGGGSGGGGSGGGGSEVQLVESGGGLVQPGGSLRLSCVASGRIFSSNAMGWFRQAPGKEREFVAAITWRSGGSAYYADSAKGRFTISRDNAKNTVYLQMNSLKPEDTAVYYCAAGGSSWLSFPPDYWGQGTQVTVSS", 100),
]
